- testSystem: rat NaPi-2b (Rattus norvegicus, UniProt Q9JJ09)
- Sequence (Q9JJ09 whole entry): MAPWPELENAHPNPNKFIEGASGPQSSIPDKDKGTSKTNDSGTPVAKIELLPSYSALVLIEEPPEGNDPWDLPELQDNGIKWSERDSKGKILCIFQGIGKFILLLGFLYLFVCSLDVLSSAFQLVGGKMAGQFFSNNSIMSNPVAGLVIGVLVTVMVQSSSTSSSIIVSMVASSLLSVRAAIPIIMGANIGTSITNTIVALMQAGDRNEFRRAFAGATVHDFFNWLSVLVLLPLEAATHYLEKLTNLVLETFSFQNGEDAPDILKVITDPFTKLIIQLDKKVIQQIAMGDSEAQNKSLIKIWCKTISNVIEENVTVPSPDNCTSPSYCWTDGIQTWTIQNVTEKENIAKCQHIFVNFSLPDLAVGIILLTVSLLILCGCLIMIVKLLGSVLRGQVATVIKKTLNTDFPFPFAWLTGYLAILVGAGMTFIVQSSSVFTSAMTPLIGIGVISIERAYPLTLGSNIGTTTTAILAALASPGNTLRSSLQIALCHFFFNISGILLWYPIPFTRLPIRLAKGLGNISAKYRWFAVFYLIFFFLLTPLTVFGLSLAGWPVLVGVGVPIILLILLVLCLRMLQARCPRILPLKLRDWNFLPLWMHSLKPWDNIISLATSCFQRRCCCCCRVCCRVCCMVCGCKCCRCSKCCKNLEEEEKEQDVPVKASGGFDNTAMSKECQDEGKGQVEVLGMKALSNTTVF
- test: Sodium-dependent phosphate uptake of Xenopus oocytes which expressed NaPi-2b (32P)
- conditionSet: Xenopus oocytes expressing rat NaPi-2b, 32P radioactive phosphorus; read-out: IC50 (phosphate uptake inhibitory activity)
pIC50: −log10 of the molar value.
measuredAttribute: pIC50

INSERT INTO measurements (compound, inequalitysymbol, measuredresult) VALUES
  ('O=C(Nc1ccc(Cl)cc1C(=O)N/N=C/c1cccc(F)c1)c1cccnc1 [Compound 184]', '=', 5.40),
  ('Cc1cccc(/C=N/NC(=O)c2cc(Br)ccc2NC(=O)c2ccc(CSCCO)cc2)c1 [Compound 263]', '>', 6.00),
  ('O=C(O)CCSCc1cccc(C(=O)Nc2ccc(N3CCCCC3)cc2C(=O)N/N=C/c2ccc(Cl)c(C(F)(F)F)c2)c1 [Compound 889]', '=', 6.48),
  ('CCN(CC)CCN(C)Cc1cccc(C(=O)Nc2scc(C)c2C(=O)N/N=C/c2ccc(OC)cc2)c1 [Compound 568]', '=', 5.36);

Ref: patent US8134015B2
